Item-by-item account of koff
Molecular target: T1, recombinant Human IL-17BR-His extracellular domain (human, UniProt Q9NRM6 18-292)
T1 construct: extracellular domain; also called human IL17BR-his tag protein
T1 sequence (looked up): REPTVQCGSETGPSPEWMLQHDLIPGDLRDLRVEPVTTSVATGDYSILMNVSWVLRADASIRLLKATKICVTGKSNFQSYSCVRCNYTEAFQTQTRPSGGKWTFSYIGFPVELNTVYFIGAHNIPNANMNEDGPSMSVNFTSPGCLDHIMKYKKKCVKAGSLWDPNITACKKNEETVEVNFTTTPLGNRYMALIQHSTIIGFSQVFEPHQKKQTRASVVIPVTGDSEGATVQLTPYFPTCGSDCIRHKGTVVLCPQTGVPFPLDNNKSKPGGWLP
Assay: Biacore T200, antibody captured by anti-human Fc, Human IL17BR-His 20-1.25 nM, 1:1 model
Method: A Human Antibody Capture kit was used to coat an anti-human IgG (Fc) antibody (in 10 mM sodium acetate, pH 5.0 immobilisation buffer) onto flow paths 2-4 a CM5 chip. Flow-path 1 was blocked and used as a blank control. This anti-human IgG coated chip was then used to immobilize the humanized antibody variants. […] Association time was set to 8 mins and Dissociation to 90 mins at a flow-rate of 30 μl/min Kinetics of binding/dissociation were analysed using a 1:1 model in the BIAevaluation software […]
Kindly answer with a numeric value in s⁻¹, unit omitted.

binder | value_kind | recorded_result
humanized antibody hD9042 (antibody, V domains shown, Human IgG1/kappa (pHuG1, pHuK vectors); also called lead candidate) VH: QVQLVQSGAEVKKPGASVKVSCKASGYTFISYWMNWVRQAPGQGLEWMGRIDPYDSEIQYNQKFKDRVTMTRDTSISTAYMELSRLRSDDTAVYYCARSGGFDWFAYWGQGTLVTVSS VL: DIQMTQSPSSLSASVGDRVTITCRASENINSNLAWYQQKPGKAPKLLLYDVTNLADGVPSRFSGSGSGTDYTLTISSLQPEDFATYYCQHFWGPPYTFGGGTKVEIK | koff | 8.23e-05

Which koff is reported for this binder? humanized antibody hD9040 (antibody, V domains shown, Human IgG1/kappa (pHuG1, pHuK vectors)) VH: EVQLVQSGAEVKKPGASVKVSCKTSGYTFISYWMNWVRQAPGQGLEWMGRIDPYDSEIQYNQKFKDRVTLTRDTSISTAYMELSRLRSDDTAVYYCARSGGFDWFAYWGQGTLVTVSS VL: DIQMTQSPSSLSASVGDRVTITCRASENINSNLAWYQQKPGKAPKLLLYDVTNLADGVPSRFSGSGSGTDYTLTISSLQPEDFATYYCQHFWGPPYTFGGGTKVEIK
6.66e-05

Which koff is reported for this binder? humanized antibody hD9041 (antibody, V domains shown, Human IgG1/kappa (pHuG1, pHuK vectors)) VH: EVQLVQSGAEVKKPGASVKVSCKTSGYTFISYWMNWVRQAPGQGLEWMGRIDPYDSEIQYAQKFQGRVTLTRDTSISTAYMELSRLRSDDTAVYYCARSGGFDWFAYWGQGTLVTVSS VL: DIQMTQSPSSLSASVGDRVTITCRASENINSNLAWYQQKPGKAPKLLLYDVTNLADGVPSRFSGSGSGTDYTLTISSLQPEDFATYYCQHFWGPPYTFGGGTKVEIK
4.44e-05

Which koff is reported for this binder? chimeric antibody cD9001 (antibody, V domains shown, Mouse D9.2 variable domains on human IgG1/kappa constant regions; also called chimeric D9.2) VH: QVQLQQPGAELVRPGASVKLSCKTSGYTFISYWMNWVKQGPEQGLEWIGRIDPYDSEIQYNQKFKDKAILTVDKSSSAAYMQLISLTSEDSAVYYCARSGGFDWFAYWGQGTLVTVSA VL: DIQMTQSPASLSVSVGETVTITCRASENINSNLAWYQQKKGKSPQLLVYDVTNLADGVPSRFSGSGSGTQYSLKINSLQSEDFGSYYCQHFWRPPYTFGGGTNLEIK
5e-05
